Tested on: KM12 colon
Assay: NCI tumour cell line growth inhibition, 48 h
TGI reference

COMPOUND	RELATION_QUALIFIER	TGI / µM
CC1=C(C)C(=O)C(C2=CC(=O)C=CC2=O)=C(C2=CC(=O)C=CC2=O)C1=O	>	100
CC(C)(C)[Si](C)(C)OCC1OC(n2cnc3c(=O)[nH]c(N)nc32)C(O[Si](C)(C)C(C)(C)C)C1O[Si](C)(C)C(C)(C)C (stereo not given)	=	3.19
O=C(CCC(=O)C1CCC/C1=N/O)Nc1ccc(Cl)cc1 (stereo not given)	>	100
COc1ccccc1C(=O)N(C)c1ccc(Cl)c(C(=O)OC(C)C)c1	=	68.7
CC(O)c1cc(C(=O)N[C@@H](C)Cn2ccc(-c3ccc(C#N)c(Cl)c3)n2)n[nH]1 (stereo not given in full)	>	100

###

System: COLO 205 colon
Test: NCI tumour cell line growth inhibition, 48 h; in the data active = GI50 below about 0.43 µM; inactive = the rest
Outcome codes: active, inactive

MOLECULE	TEST_SYSTEM	CLASS
O=C1OCC2=C1C(c1ccccc1)c1cc3c(cc1N2CCO)OCCO3 (stereo unspecified)	COLO 205 colon	active
CC1(C)C(=O)/C(=C\c2cccnc2)C[C@]2(C)[C@H]3CC[C@@H]4[C@@H](C(=O)/C=C/c5ccncc5)CC[C@@]4(C)[C@]3(C)CC[C@@H]12	COLO 205 colon	inactive
Cc1ccc([C@]2(C)CC[C@H](C)/C2=C\Br)c(O)c1	COLO 205 colon	inactive
CC(=O)c1cc(O)c2ccccc2c1O	COLO 205 colon	inactive
COc1cc(-c2csc(NC(=O)Nc3cc(Cl)cc(Cl)c3)n2)cc(OC)c1OC	COLO 205 colon	inactive
CCCCCCCCCCCCCCCC1=NC(C)(C)CN1C(C)C	COLO 205 colon	inactive

###

System: RXF 393 renal
Test: NCI tumour cell line growth inhibition, 48 h
log10 TGI reference
TEST_READOUT: log10 TGI (log10 of the value in µM)

COMPOUND	log10 TGI
O=[N+]([O-])C(Cl)=C/C(=C(\Cl)SCc1ccccc1)[N+](=O)[O-]	1.42
O=C(c1ccccc1)c1c(C(F)(F)F)n([O-])c2ccc(C(F)(F)F)cc2[n+]1=O	-0.47
NC(=S)NN=C1CSSC1	0.75
C=CC(COC(c1ccccc1)(c1ccccc1)c1ccccc1)N(CC)CC (stereo not given)	0.91
C=CCn1c(-c2ccc([N+](=O)[O-])cc2)csc1=N	1.74

###

Test system: TK-10 renal
Experiment: NCI tumour cell line growth inhibition, 48 h

COMPOUND	GI50
Cn1cc(C2=C(N3CCOCC3)C(=O)NC2=O)c2ccccc21	> 25 µM
CCN(CC)c1ccc(/C=C/C=C2\NC(=O)NC2=O)cc1	6.54 µM
CC(=O)c1cc(O)c2ccccc2c1O	17 µM
Cc1c(Cl)cccc1NC(=O)c1sc2nc3c(cc2c1N)CCCCC3	6.66 µM
COc1cccc2c1n([O-])c1cccc(OC)c1[n+]2=O	24.3 µM
C[C@@H](Nc1nc(Nc2ccc(F)c(Cl)c2)nc2ccccc12)C1CC1	6.96 µM
COC(=O)C(C)NC(=O)c1ccccc1I(OS(=O)(=O)C(F)(F)F)c1ccccc1 (stereo not drawn)	21 µM
Nc1ncc(-c2cccc(S(N)(=O)=O)c2)c2scc(-c3ccc(F)c(Cl)c3)c12	6.58 µM
N.N.O=P([O-])([O-])C1(P(=O)([O-])[O-])CCCCCN1.[Pt+2]	> 100 µM
Cc1ccc([C@]2(C)CC[C@H](C)/C2=C\Br)c(O)c1	3.35 µM
O=C(NC(=S)Nc1cc(Cl)ccc1O)c1cccc(Br)c1	17.1 µM
C=CC(COC(c1ccccc1)(c1ccccc1)c1ccccc1)N(CC)CC (stereo not drawn)	3.19 µM
CN(C)CCCn1c(-c2nonc2N)nc2cnccc21	> 9.98 µM
